Assay: Half life in Sprague-Dawley rat at 1 mg/kg, iv and 2 mg/kg, po
Format: ADME, organism-based
Settings: in vivo
Result type: half-life

N#Cc1cc(-c2ccnc(Nc3ccc(-n4cnc(-c5ccccn5)n4)cc3)n2)cc(N2CCOCC2)c1 : 3 h

Input line: Consider the compound Cn1nnc(-c2ccc(Nc3nccc(-c4cc(C#N)cc(N5CCOCC5)c4)n3)cc2)n1 and give its measured half-life.
Output line: 1.9 h

Input line: Same again, this time with Fc1cc(-c2ccnc(Nc3ccc(-n4cnc(N5CCOCC5)n4)cc3)n2)cc(N2CCOCC2)c1
Output line: 2.4 h

Input line: Same thing, different compound: Cc1ncn(-c2ccc(Nc3nccc(-c4cccc(N5CCOCC5)c4)n3)cc2)n1
Output line: 0.8 h
